- test.protocol: Reduction of cell viability in uninfected MT-2 cells (XTT-PMS)
- Assay type: cell-based
- run.conditions: human, at 27 μM, 7 days
reported.endpoint: cytotoxicity at 168 h, 27 µM (%)
Only the number, expressed in %, is required.

Query string: Which cytotoxicity at 168 h, 27 µM is listed for C=C1[C@H](CO)[C@@H](O)C[C@@H]1n1cnc2c(N)ncnc21 ?
Result string: 23
